Activity values, listed per item
Biological target: Protein cereblon/E3 ubiquitin-protein ligase XIAP (Homo sapiens) (UniProt P98170+Q96SW2)
Sequence (P98170 whole entry, looked up): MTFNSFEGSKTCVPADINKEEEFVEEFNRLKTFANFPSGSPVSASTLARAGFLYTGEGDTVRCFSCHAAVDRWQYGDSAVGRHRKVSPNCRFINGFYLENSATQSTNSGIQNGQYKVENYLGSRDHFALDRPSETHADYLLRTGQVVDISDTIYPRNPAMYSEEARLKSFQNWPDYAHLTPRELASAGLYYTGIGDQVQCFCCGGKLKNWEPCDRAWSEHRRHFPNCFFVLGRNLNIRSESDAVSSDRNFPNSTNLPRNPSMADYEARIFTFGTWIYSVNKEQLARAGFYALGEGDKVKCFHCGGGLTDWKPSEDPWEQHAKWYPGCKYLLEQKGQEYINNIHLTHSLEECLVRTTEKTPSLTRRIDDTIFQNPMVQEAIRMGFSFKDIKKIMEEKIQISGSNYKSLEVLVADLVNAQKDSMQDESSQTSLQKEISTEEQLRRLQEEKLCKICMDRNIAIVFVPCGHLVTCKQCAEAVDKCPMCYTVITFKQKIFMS
Sequence (Q96SW2 whole entry, looked up): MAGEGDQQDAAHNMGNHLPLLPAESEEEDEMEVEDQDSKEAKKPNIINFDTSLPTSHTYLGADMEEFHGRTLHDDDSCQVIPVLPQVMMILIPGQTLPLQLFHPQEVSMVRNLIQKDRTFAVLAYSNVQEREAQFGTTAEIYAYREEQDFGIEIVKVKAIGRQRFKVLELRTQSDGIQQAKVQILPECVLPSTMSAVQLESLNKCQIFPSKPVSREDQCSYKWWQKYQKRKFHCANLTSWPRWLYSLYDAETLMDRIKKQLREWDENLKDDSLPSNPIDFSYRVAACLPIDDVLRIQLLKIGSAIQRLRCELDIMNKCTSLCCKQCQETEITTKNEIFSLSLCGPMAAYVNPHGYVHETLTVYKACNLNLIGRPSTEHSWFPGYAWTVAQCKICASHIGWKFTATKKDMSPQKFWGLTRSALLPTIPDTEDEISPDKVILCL
Experiment: PROTAC activity at CRBN/XIAP in human MCF7 cells assessed as induction of XIAP degradation at 1 uM measured after 18 hrs by western blot analysis
Type: cell-based
Return type: number; implicit unit %.

molecule | Activity / %
CN[C@@H](C)C(=O)N[C@H](C(=O)N1Cc2cc(OCCCCCNC(=O)CNc3ccc4c(c3)C(=O)N(C3CCC(=O)NC3=O)C4=O)ccc2C[C@H]1C(=O)N[C@@H]1CCCc2ccccc21)C(C)(C)C (stereo not given in full) | 65
CN[C@@H](C)C(=O)N[C@H](C(=O)N1Cc2cc(OCCCCCCCCNC(=O)C3CCN(c4ccc5c(c4)C(=O)N(C4CCC(=O)NC4=O)C5=O)CC3)ccc2C[C@H]1C(=O)N[C@@H]1CCCc2ccccc21)C(C)(C)C (stereo not given in full) | 82
CN[C@@H](C)C(=O)N[C@H](C(=O)N1Cc2cc(OCCCCCNC(=O)C3CCN(c4cccc5c4C(=O)N(C4CCC(=O)NC4=O)C5=O)CC3)ccc2C[C@H]1C(=O)N[C@@H]1CCCc2ccccc21)C(C)(C)C (stereo not given in full) | 78
CN[C@@H](C)C(=O)N[C@H](C(=O)N1Cc2cc(O)ccc2C[C@H]1C(=O)N[C@@H]1CCCc2ccccc21)C(C)(C)C | 0

Recorded Activity (molecule CN[C@@H](C)C(=O)N[C@H](C(=O)N1Cc2cc(OCCCCCNC(=O)COc3ccc4c(c3)C(=O)N(C3CCC(=O)NC3=O)C4=O)ccc2C[C@H]1C(=O)N[C@@H]1CCCc2ccccc21)C(C)(C)C (stereo not given in full) ): 73
